- assay.name: Inhibition of bacterial FtsZ GTPase activity (unknown origin)
Measured IC50, listed per entry.
attribute.measured: IC50 (µM)

- smiles.text: "CCN(CC)CCNc1nc(/C=C/c2ccc(Cl)cc2)nc2cc3ccccc3cc12"
  test.value: 24
- smiles.text: "CN(C)CCNc1nc(/C=C/c2ccc(Cl)cc2)nc2cc3ccccc3cc12"
  test.value: 12

====

Sequence of the target: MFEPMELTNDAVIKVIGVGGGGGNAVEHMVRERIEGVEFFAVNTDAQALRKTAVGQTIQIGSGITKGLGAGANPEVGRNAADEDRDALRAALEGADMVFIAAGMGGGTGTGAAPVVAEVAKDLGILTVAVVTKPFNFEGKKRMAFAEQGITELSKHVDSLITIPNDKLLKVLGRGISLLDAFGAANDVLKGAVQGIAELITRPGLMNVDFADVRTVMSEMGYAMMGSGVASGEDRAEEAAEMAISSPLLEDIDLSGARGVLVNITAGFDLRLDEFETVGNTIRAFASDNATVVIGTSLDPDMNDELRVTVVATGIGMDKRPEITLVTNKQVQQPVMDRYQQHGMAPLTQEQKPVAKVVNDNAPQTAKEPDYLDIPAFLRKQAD

- smiles.text: "CN(C)CCNc1nc(/C=C/c2ccc(Cl)cc2)nc2ccc(C3=CCCCC3)cc12"
  bound.sign: "="
  IC50 [µM]: 49
- smiles.text: "CN(C)CCNc1nc(/C=C/c2ccc(Cl)cc2)nc2ccc(-c3ccccc3)cc12"
  bound.sign: "="
  IC50 [µM]: 28
- smiles.text: "Cc1ccc2nc(/C=C/c3ccc(Cl)cc3)nc(NCCN)c2c1"
  bound.sign: "="
  IC50 [µM]: 27
- smiles.text: "CN(C)CCNc1nc(/C=C/c2ccc(N=[N+]=[N-])cc2)nc2cc3ccccc3cc12"
  bound.sign: "="
  IC50 [µM]: 14
- smiles.text: "CC(C)(C)OC(=O)CNc1nc(/C=C/c2ccc(Cl)cc2)nc2cc3ccccc3cc12"
  bound.sign: ">"
  IC50 [µM]: 128

====

- tested.target: Cell division protein FtsZ (Staphylococcus aureus)
- Sequence (P0A031 whole entry): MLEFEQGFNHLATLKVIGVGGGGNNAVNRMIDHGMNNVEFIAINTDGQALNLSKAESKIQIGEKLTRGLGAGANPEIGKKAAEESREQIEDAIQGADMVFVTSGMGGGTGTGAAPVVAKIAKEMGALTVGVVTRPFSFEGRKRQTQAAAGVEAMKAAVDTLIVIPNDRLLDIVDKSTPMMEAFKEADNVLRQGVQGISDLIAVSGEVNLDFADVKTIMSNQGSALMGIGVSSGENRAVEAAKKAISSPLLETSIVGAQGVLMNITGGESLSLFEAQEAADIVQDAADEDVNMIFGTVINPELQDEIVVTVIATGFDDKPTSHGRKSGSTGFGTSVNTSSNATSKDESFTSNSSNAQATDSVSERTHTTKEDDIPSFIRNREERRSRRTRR
- assay.name: Activation of Staphylococcus aureus FtsZ GTPase activity
pEC50: −log10 of the molar value.

- smiles.text: "NC(=O)c1c(F)ccc(OCc2nc3cc(Cl)cnc3s2)c1F"
  pEC50: 5.40
